target_or_system: human TLR8 (Homo sapiens, UniProt Q9NR97)
Construct: host or cells: HEK-Blue cells
Sequence (Q9NR97 27-1041): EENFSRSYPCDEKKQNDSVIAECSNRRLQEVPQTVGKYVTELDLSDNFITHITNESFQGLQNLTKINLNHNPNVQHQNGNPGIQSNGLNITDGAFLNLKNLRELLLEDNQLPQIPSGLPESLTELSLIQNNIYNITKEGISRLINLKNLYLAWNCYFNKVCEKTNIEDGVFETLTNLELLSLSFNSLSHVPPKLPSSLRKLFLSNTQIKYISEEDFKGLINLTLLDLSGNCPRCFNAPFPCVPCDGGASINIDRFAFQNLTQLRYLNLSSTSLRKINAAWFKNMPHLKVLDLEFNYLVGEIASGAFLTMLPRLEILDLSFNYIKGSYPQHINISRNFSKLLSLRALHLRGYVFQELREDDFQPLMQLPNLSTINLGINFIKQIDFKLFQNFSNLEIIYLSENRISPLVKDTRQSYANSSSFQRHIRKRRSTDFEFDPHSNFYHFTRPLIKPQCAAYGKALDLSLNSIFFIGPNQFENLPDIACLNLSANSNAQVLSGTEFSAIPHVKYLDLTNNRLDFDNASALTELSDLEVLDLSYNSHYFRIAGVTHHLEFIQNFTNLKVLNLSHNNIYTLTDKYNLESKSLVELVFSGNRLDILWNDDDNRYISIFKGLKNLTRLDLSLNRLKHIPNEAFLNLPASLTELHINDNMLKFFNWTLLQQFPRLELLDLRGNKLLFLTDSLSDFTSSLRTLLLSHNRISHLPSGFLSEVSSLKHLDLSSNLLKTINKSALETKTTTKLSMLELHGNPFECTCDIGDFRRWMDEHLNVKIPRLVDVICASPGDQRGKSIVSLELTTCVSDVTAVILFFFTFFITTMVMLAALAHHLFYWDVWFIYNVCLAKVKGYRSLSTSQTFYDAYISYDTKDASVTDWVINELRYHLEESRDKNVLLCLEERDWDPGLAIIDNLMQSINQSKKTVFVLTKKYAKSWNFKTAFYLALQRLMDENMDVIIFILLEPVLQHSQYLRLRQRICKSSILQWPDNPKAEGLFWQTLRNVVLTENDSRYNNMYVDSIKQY
protocol: TLR8 inhibition reporter assay (HEK-Blue cells, SEAP reporter, R848 stimulation)
Type: cell-based
protocol_conditions: HEK-Blue cells overexpressing human TLR8, SEAP reporter, R848 15.9 μM; read-out: TLR8 IC50
assay_endpoint: log10(IC50) (log10 of the value in nM)
Note: values are log10 of IC50 expressed in nM.

// Cc1c(-c2[nH]c3sc(C(=O)N(C)CCN(C)C)nc3c2C(C)C)cn2ncnc2c1C [Example 382] : log10(IC50) value = 0.37

// Cc1c(-c2[nH]c3sc(N4CCN(CC(=O)N(C)C)C[C@@H]4C)nc3c2C(C)C)cn2ncnc2c1C [Example 343] : log10(IC50) value = 0.52

// Cc1c(-c2[nH]c3sc(N4C[C@@H](C)N(C(=O)CN(C)C)C[C@@H]4C)nc3c2C(C)C)cn2ncnc2c1C [Example 341] : log10(IC50) value = 0.95

// COc1cc(-c2[nH]c3sc(C4CCC(N5CCC6(CC5)COC6)CC4)nc3c2C(C)C)cn2ncnc12 (single isomer, unassigned) [Example 112] : log10(IC50) value = 1.45

// Cc1c(-c2[nH]c3sc(N4CC5(C4)CN(C4COC4)C5)nc3c2C(C)C)cn2ncnc2c1C [Example 302] : log10(IC50) value = 1.15

// Cc1c(-c2[nH]c3sc(C4CCC(N5CC(O)(C(F)(F)F)C5)CC4)nc3c2C(C)C)cn(C)c(=O)c1C (single isomer, unassigned) [Example 267] : log10(IC50) value = 0.85

// Cc1c(-c2[nH]c3sc(C4CCC(N5CC(O)C5)CC4)nc3c2C(C)C)cn2ncnc2c1C (single isomer, unassigned) [Example 224] : log10(IC50) value = -0.20

// Cc1c(-c2[nH]c3sc(C4CCC(N(C)C(C)C)CC4)nc3c2C(C)C)cn(C)c(=O)c1C (single isomer, unassigned) [Example 261] : log10(IC50) value = 0.35

// Cc1cc2ncnn2cc1-c1[nH]c2sc(C3CCC(NC4(C)COC4)CC3)nc2c1C(C)C (single isomer, unassigned) [Example 144] : log10(IC50) value = 0.55

// Cc1c(-c2[nH]c3sc(C4CCC(NCC(C)(C)O)CC4)nc3c2C(C)C)cn2ncnc2c1C (single isomer, unassigned) [Example 196] : log10(IC50) value = -0.77

// COc1cc(-c2[nH]c3sc(C4CCC(NCC(C)(C)O)CC4)nc3c2C(C)C)cn2ncnc12 (single isomer, unassigned) [Example 85] : log10(IC50) value = 1.24

// Cc1c(-c2[nH]c3sc(N4CCC(N)CC4)nc3c2C(C)C)cn2ncnc2c1C [Example 299] : log10(IC50) value = -0.14

// Cc1cc2ncnn2cc1-c1[nH]c2sc(C3CCC(NC4COC4)CC3)nc2c1C(C)C (single isomer, unassigned) [Example 153] : log10(IC50) value = 0.82

// Cc1cc(-c2[nH]c3sc(C(=O)NCC4(S(C)(=O)=O)CC4)nc3c2C(C)C)cn2ncnc12 [Example 399] : log10(IC50) value = 2.12

// Cc1c(-c2[nH]c3sc(C4CCN(CC5(C)COC5)CC4)nc3c2C(C)C)cn2ncnc2c1C [Example 47] : log10(IC50) value = -0.25

// COc1cc(-c2[nH]c3sc(C4CCC(N5CC[C@@H](NC(C)=O)C5)CC4)nc3c2C(C)C)cn2ncnc12 (single isomer, unassigned) [Example 100] : log10(IC50) value = 2.06

// Cc1c(-c2[nH]c3sc(C4CCC(N5CC6(C5)CS(=O)(=O)C6)CC4)nc3c2C(C)C)cn2ncnc2c1C (single isomer, unassigned) [Example 233] : log10(IC50) value = -0.23

// COC(C)(C)CNC1CCC(c2nc3c(C(C)C)c(-c4cn5ncnc5c(C)c4C)[nH]c3s2)CC1 (single isomer, unassigned) [Example 186] : log10(IC50) value = -0.68

// Cc1cc2ncnn2cc1-c1[nH]c2sc(C3CCC(N4CCCC4)CC3)nc2c1C(C)C (single isomer, unassigned) [Example 154] : log10(IC50) value = 0.52

// COc1cc(-c2[nH]c3sc(C(=O)NCCN4CCCC4)nc3c2C(C)C)cn2ncnc12 [Example 387] : log10(IC50) value = 1.64

// CCN(C)C1CCC(c2nc3c(C(C)C)c(-c4cc(C)c5ncnn5c4)[nH]c3s2)CC1 (single isomer, unassigned) [Example 132] : log10(IC50) value = 0.44

// Cc1c(-c2[nH]c3sc(N4CCN(C(=O)CN(C)C)C[C@H]4C)nc3c2C(C)C)cn2ncnc2c1C [Example 327] : log10(IC50) value = 0.85

// Cc1c(-c2[nH]c3sc(N4CCN(C(=O)C5CCS(=O)(=O)CC5)C[C@@H]4C)nc3c2C(C)C)cn2ncnc2c1C [Example 347] : log10(IC50) value = 1.65

// CCCN1CCC(c2nc3c(C(C)C)c(-c4cn5ncnc5c(C)c4C)[nH]c3s2)CC1 [Example 51] : log10(IC50) value = 0.01

// CC(C)c1c(-c2ccc(C#N)c3ncccc23)[nH]c2sc(C3CCN(CC(=O)N(C)C)CC3)nc12 [Example 40] : log10(IC50) value = 1.49

// Cc1c(-c2[nH]c3sc(C4CCN(C)CC4)nc3c2C(C)C)cn2ncnc2c1C [Example 49] : log10(IC50) value = -0.32

// Cc1c(-c2[nH]c3sc(N4CCN(CC(C)(C)O)C[C@H]4C)nc3c2C(C)C)cn2ncnc2c1C [Example 325] : log10(IC50) value = -0.72
